Attribution: the Biogen ADME set (Fang et al. 2023)

- measurement-parameters: pH 6.8
property-name: aqueous solubility (µg/mL)

a = COCc1noc(-c2ccc(-c3cc(C)cc(C)c3)nc2)n1
b = Cc1ccc(OCC(=O)Nc2ccncc2)c(C)c1
c = CC(=O)Nc1cnn(CC2CCN(C)CC2)c1
d = CC(C)(C)c1ccc(C(=O)Nc2ccc(C(=O)Nc3ccccc3)cc2)cc1
e = CSc1ccccc1NC(=O)CN1CCCC(c2nc3ccccc3o2)C1 (centres undefined)
Problem: Please rank the 5 items above; order by aqueous solubility, the highest number leading. Use the labels to give the requested order.
Result: b, c, e, d, a
(b: 47.1 µg/mL, c: 23.5 µg/mL, e: 8.5 µg/mL, d: 0.4 µg/mL, a: 0.21 µg/mL)

I = Cc1noc(C)c1C(=O)N1CCCN(c2ccc(F)cc2)CC1
II = CC(C)[C@H](Nc1ncc(Cl)cn1)C(=O)N1CCCC1
III = Cc1ccc(C)c(C(=O)Nc2cnc3c(c2)c(C)nn3C)c1
IV = Cc1nc(C(C)C)sc1C(=O)Nc1nc(C(C)(C)C)cs1
Problem: List by increasing aqueous solubility. Use the labels to give the requested order.
Result: III, IV, II, I
(III: 2.33 µg/mL, IV: 11.8 µg/mL, II: 36.2 µg/mL, I: 55.6 µg/mL)

a = CCCCc1c(C)[nH]c2nc(N(Cc3cccs3)C(C)=O)nn2c1=O
b = Cc1nc(N)c2c(C(F)(F)F)cc(C3CCN(C(=O)Cc4ccc(F)cc4)CC3)nc2n1
c = CCn1ncnc1-c1[nH]cnc1-c1ccccc1
d = COc1ccc(C(=O)Cn2c(=O)n(-c3ccccc3F)c3nc(C)nc(C(N)=O)c32)cc1
e = CCN(c1ccccc1)S(=O)(=O)c1ccc(C(=O)Nc2ccccc2C(C)=O)cc1
Problem: List by increasing aqueous solubility. Use the labels to give the requested order.
Result: e, d, c, a, b

I = O=C1NCCCCC1NC(=O)N1CCc2sccc2C1 (centres undefined)
II = CC(C)(C)C(=O)N1CCC(Cc2ccc(-c3cccs3)cc2)(C(=O)N2CCCC2)CC1
III = CN(c1ncccc1CNc1nc(Nc2ccc3c(c2)CC(=O)N3)ncc1C(F)(F)F)S(C)(=O)=O
IV = Cc1nc2cc(NC(=O)CCc3c(C)nc4c(c(C)nn4C)c3C)ccc2o1
Problem: Falling order of aqueous solubility, please. Use the labels to give the requested order.
Result: III, I, II, IV
(III: 94.4 µg/mL, I: 49.6 µg/mL, II: 23 µg/mL, IV: 9.3 µg/mL)

A = O=C(NCCc1ccc2c(c1)OCO2)Nc1ccncc1
B = COc1ccc(CCCNc2nnc(C)o2)cc1
Problem: Please choose the item with the lower aqueous solubility value from this pair: A and B The response must carry the label of the picked entry.
Result: B
(B: 25.4 µg/mL, A: 46.5 µg/mL)

I = Oc1ccccc1NCc1ccccn1
II = Cc1cc(C)nc(Nc2ccc(C3CCCN(CC(=O)N4CCCC4)C3)nc2)n1 (centres undefined)
Problem: Please choose the item with the lower aqueous solubility value from this pair: I and II The response must carry the label of the picked entry.
Result: I

I = CNC(=O)CN1CCCN(C(=O)c2c(C)nn(-c3ccccc3)c2Cl)CC1
II = O=C(COc1ccc2ccc(=O)oc2c1)Nc1cccc(COCc2ccco2)c1
Problem: Quick check, higher aqueous solubility between I and II ? The response must carry the label of the picked entry.
Result: I

I = N#Cc1ncn(Cc2ncc(-c3ccccc3)s2)c1C#N
II = CNc1nc(-c2cc(OC)cc(OC)c2)ncc1F
Problem: Quick check, higher aqueous solubility between I and II ? The response must carry the label of the picked entry.
Result: I
